target: wild type cytochrome bo3 (Escherichia coli); assay: HQNO binding monitored by fluorescence anisotropy; parameters: species or system E. coli; conditions: read-out: Kd HQNO; wild type + 300 μM Q1
pKd: −log10 of the molar value.

Smiles Data | pKd
CCCCCCCc1cc(=O)c2ccccc2n1O | 5.39

----------
target: cytochrome bo3 D188A (Escherichia coli, UniProt P0ABI8, D188A); assay: HQNO binding monitored by fluorescence anisotropy; parameters: species or system E. coli; settings: read-out: Kd HQNO
Sequence (P0ABI8 whole entry D188A, one chain of several): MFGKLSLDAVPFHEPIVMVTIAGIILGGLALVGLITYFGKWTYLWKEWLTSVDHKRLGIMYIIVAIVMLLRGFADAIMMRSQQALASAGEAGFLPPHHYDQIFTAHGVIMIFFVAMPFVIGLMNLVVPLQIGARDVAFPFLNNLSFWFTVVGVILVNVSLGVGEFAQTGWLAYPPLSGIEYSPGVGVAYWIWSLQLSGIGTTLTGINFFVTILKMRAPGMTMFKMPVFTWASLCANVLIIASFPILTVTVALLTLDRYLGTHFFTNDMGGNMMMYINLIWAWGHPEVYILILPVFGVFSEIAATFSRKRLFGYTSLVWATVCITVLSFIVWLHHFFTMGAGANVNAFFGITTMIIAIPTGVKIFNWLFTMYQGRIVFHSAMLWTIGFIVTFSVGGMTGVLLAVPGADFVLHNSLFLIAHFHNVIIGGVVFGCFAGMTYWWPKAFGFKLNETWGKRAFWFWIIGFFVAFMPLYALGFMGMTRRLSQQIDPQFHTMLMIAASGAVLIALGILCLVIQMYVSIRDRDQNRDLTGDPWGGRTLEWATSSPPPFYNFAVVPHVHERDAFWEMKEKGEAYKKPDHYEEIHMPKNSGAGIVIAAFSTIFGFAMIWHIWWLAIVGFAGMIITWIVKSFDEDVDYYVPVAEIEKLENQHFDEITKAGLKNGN
pKd: −log10 of the molar value.
Observation Type: pKd

Smiles Data | Value Measured
CCCCCCCc1cc(=O)c2ccccc2n1O | 5.30

----------
target: wild type cytochrome bo3 (no bound Q8) (Escherichia coli)
Sequence (P0ABJ3 whole entry): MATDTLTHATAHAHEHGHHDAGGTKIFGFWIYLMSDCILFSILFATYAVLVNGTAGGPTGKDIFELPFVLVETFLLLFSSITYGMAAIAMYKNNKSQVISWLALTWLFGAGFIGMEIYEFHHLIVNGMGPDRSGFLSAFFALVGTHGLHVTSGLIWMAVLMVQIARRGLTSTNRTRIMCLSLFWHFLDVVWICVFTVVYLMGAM
Sequence (P0ABJ1 25-315, further chain): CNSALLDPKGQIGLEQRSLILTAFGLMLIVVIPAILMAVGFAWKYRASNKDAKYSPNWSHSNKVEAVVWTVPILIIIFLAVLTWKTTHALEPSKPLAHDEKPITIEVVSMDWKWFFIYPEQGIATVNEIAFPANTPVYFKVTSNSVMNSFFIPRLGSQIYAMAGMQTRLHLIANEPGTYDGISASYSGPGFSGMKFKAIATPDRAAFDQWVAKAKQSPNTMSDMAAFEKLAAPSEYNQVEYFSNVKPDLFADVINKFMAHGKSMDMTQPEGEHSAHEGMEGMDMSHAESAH
Sequence (P0ABI8 whole entry): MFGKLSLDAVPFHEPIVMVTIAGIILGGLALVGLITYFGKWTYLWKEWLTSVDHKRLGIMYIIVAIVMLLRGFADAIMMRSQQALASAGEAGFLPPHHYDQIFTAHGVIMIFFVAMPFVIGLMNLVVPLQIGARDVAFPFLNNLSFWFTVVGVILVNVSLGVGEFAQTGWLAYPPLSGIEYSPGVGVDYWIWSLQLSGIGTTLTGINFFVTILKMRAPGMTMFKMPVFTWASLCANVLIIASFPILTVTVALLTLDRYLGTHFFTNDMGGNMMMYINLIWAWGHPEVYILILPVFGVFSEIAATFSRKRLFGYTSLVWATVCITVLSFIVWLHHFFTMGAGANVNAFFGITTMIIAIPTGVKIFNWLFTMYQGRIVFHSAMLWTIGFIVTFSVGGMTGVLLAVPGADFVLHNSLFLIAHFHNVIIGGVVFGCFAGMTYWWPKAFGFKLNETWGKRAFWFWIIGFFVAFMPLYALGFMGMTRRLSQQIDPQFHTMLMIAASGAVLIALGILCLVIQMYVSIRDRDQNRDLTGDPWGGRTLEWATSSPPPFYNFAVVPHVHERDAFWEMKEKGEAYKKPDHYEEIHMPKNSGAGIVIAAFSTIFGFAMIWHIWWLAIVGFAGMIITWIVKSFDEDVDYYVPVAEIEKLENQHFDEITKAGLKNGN
Sequence (P0ABJ6 whole entry, further chain): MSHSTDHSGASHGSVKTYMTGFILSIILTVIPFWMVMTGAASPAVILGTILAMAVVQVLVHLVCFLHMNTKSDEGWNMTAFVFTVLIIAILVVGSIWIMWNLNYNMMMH

Smiles Data | Kd, µM
CCCCCCCc1cc(=O)c2ccccc2n1O | 5.8

----------
target: wild type cytochrome bo3 (Escherichia coli, UniProt P0ABI8); test: HQNO binding monitored by fluorescence anisotropy; design: species or system E. coli; conditions: read-out: Kd HQNO; wild type, one equivalent of ubiquinone-8 bound; 1 μM HQNO, pH 8.3
Sequence (P0ABJ1 25-315): as the sequence (P0ABJ1 25-315, further chain) above
Sequence (P0ABJ3 whole entry, further chain): as the sequence (P0ABJ3 whole entry) above
Sequence (P0ABJ6 whole entry, further chain): as the sequence (P0ABJ6 whole entry, further chain) above
Sequence (P0ABI8 whole entry): as the sequence (P0ABI8 whole entry) above
pKd: −log10 of the molar value.
Observation Type: pKd

Smiles Data | Value Measured
CCCCCCCc1cc(=O)c2ccccc2n1O | 5.40

----------
target: wild type cytochrome bo3 (Escherichia coli); assay: steady state ubiquinol-1 oxidase activity; conditions: read-out: Ki, inhibition of ubiquinol-1 oxidase activity by HQNO; coupled assay; enzyme with ubiquinone-8 bound to the QH site
pKi: −log10 of the molar value.

Compound | pKi
CCCCCCCc1cc(=O)c2ccccc2n1O [HQNO] | 6.13

----------
molecular target: wild type cytochrome bo3 (Escherichia coli); assay: HQNO binding monitored by fluorescence anisotropy; set-up: species or system E. coli; conditions: read-out: Kd HQNO; wild type + 1500 μM Q1

Compound | Kd [µM]
CCCCCCCc1cc(=O)c2ccccc2n1O [HQNO] | 6.8

----------
target: cytochrome bo3 H98S (Escherichia coli, UniProt P0ABI8, H98S); experiment: HQNO binding monitored by fluorescence anisotropy; conditions: read-out: Kd HQNO
Sequence (P0ABI8 whole entry H98S, one chain of several): as the sequence (P0ABI8 whole entry D188A, one chain of several) above, with H98S, A188D counted along it
pKd: −log10 of the molar value.

Smiles Data | pKd
CCCCCCCc1cc(=O)c2ccccc2n1O | 5.44
